Test system: MDA-MB-435
Assay Notes: NCI tumour cell line growth inhibition, 48 h
Active and inactive are the calls of the source. Rule as the data show it: active = GI50 up to about 1.1 µM and inactive = higher.
Classes used: y = active, n = inactive

[
  {
    "Molecule": "Cc1n[n+]([O-])c(C)cc1[N+](=O)[O-]",
    "Target System": "MDA-MB-435",
    "Assigned Label": "n"
  },
  {
    "Molecule": "COc1cc(C2c3cc4c(cc3OC3(OC)COC(=O)C23)OCO4)cc(OC)c1OC (stereo not given)",
    "Target System": "MDA-MB-435",
    "Assigned Label": "y"
  },
  {
    "Molecule": "COc1cc(C(=O)NNC(=O)c2cc(Br)ccc2NC(=O)c2cccs2)cc(OC)c1OC",
    "Target System": "MDA-MB-435",
    "Assigned Label": "n"
  },
  {
    "Molecule": "[N-]=[N+]=Nc1c(Cl)c(Cl)nc2ccccc12",
    "Target System": "MDA-MB-435",
    "Assigned Label": "n"
  },
  {
    "Molecule": "O=c1c2cc3c(=O)n4c(cc(-c5ccccc5)c5cc(Cl)ccc54)nc3cc2nc2cc(-c3ccccc3)c3cc(Cl)ccc3n12",
    "Target System": "MDA-MB-435",
    "Assigned Label": "n"
  },
  {
    "Molecule": "O=C(O)c1cnccc1-c1cc(=O)[nH]n1-c1ccccc1",
    "Target System": "MDA-MB-435",
    "Assigned Label": "n"
  },
  {
    "Molecule": "Nc1ccc2c(c1)Cc1ccccc1-2",
    "Target System": "MDA-MB-435",
    "Assigned Label": "n"
  },
  {
    "Molecule": "CC1=CC(=O)/C(=C/N2C(=O)CNC2=S)C(=O)O1",
    "Target System": "MDA-MB-435",
    "Assigned Label": "n"
  },
  {
    "Molecule": "Cn1nnc2c3c(N(CCO)CCO)ccnc3ccc21",
    "Target System": "MDA-MB-435",
    "Assigned Label": "n"
  },
  {
    "Molecule": "CC(=O)OC1=CC2=CC[C@H]3[C@@H]4CCC(=O)[C@@]4(C)CC(=O)[C@]3(S)[C@@]2(C)CC1",
    "Target System": "MDA-MB-435",
    "Assigned Label": "n"
  }
]
